test system: Mycobacterium tuberculosis; assay: Antimicrobial activity against Mycobacterium tuberculosis H37Rv ATCC 27294 by microplate Alamar Blue assay; assay type: functional
Endpoint Label: MIC (µg/mL)
The reply should contain only the number, in µg/mL.

Look over these answered cases.
N#Cc1c(NC(=O)c2cccs2)[n+]([O-])c2ccc(F)cc2[n+]1[O-] ... 1.47
N#Cc1c(NC(=O)c2cccs2)[n+]([O-])c2ccc(C(F)(F)F)cc2[n+]1[O-] ... 9.18
N#Cc1c(NC(=O)c2ccc([N+](=O)[O-])o2)[n+]([O-])c2ccc(C(F)(F)F)cc2[n+]1[O-] ... 14.4
COc1ccc2c(c1)[n+]([O-])c(C#N)c(NC(=O)c1ccc([N+](=O)[O-])o1)[n+]2[O-] ... 14.5

Here is the next item to consider.
Given N#Cc1c(NC(=O)c2cccs2)[n+]([O-])c2ccc(Cl)cc2[n+]1[O-] , state its recorded MIC. 2.47

Sourced from ChEMBL document CHEMBL2429724
